System: TRPC4 beta (transient receptor potential cation channel C4), mouse
Assay Comment: TRPC4 cation channel opening, retest – cell-based, Fluo4 calcium, HEK293 TRPC4beta/mu-opioid, duplicates, 10 µM, confirmation (AID 2426)
Condition Description: Fluo4 calcium fluorescence, at 10 µM
Calls of active or inactive are those of the source.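 How the source made its calls: active means fluorescence ratio normalized to control raised more than 50% in primary screen plus both repeat runs; inactive means the rest.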
Give your call using only these classes: TRUE = active, FALSE = inactive

Check out these entries, answers already filled in.
{"Compound": "CCN(CC)c1ncnc2sc3c(c12)CCC3", "Assigned Class": "FALSE"}
{"Compound": "O=C(CC1C(=O)NCCN1Cc1ccc(-c2ccccc2)cc1)NCCc1ccccn1 (stereo unspecified)", "Assigned Class": "TRUE"}
{"Compound": "O=C(O)CN1C(c2ccccc2O)Nc2ccc(Br)cc2C1c1ccccc1 (stereo unspecified)", "Assigned Class": "FALSE"}
{"Compound": "Cn1c(=O)cc(OCCCC(=O)NCCCN2CCN(Cc3ccccc3)CC2)c2ccccc21", "Assigned Class": "FALSE"}
{"Compound": "CC(=O)N1CCN(c2ccccc2NC(=O)c2ccc3ccccc3c2)CC1", "Assigned Class": "FALSE"}

Proceed to the following item.
Dear colleague, could you share the recorded outcome for COc1ccccc1C(=O)Nc1ccc2c(c1)CCCN2C(=O)c1cccs1 when you have a moment?
FALSE
